- System: Trichophyton rubrum
- assay_summary: checkerboard drug interaction (FICI, MICc)
- Format: cell-based
- test_parameters: T. rubrum; MIC-MICc fold decrease of the inhibitor, with ketoconazole
# key: entry, value: INH FD (KET:INH)
// no unit string in output, number only

Example compounds with recorded INH FD (KET:INH):
CCCCCCCCCN1CCC[C@H]1C(=O)N[C@H](CC(=O)O)C(=O)O [PDA9] | 4
CCCCCCCCCN1CCC[C@H]1C(=O)N[C@H](CC(=O)OC)C(=O)OC [dmPDA9] | 1
CCCCCCCCCCCN1CCC[C@H]1C(=O)N[C@H](CC(=O)O)C(=O)O [PDA11] | 1

Give the measured INH FD (KET:INH) for CCCCCCCCCCCN1CCC[C@H]1C(=O)N[C@@H](CC(=O)O)C(=O)O [PLA11]
2

Give the measured INH FD (KET:INH) for CCCCCCCCCCN1CCC[C@H]1C(=O)N[C@@H](CC(=O)OC)C(=O)OC [dmPLA10]
1

###

- Test system: Cryptococcus neoformans
- assay_summary: checkerboard drug interaction (FICI, MICc)
- Format: cell-based
- test_parameters: C. neoformans; KET:INH combination; fold decrease of inhibitor MIC
# key: entry, value: INH FD (MIC-MICc fold decrease)
// no unit string in output, number only

Give the measured INH FD (MIC-MICc fold decrease) for CCCCCCCCCCCCN1CCC[C@H]1C(=O)N[C@H](CC(=O)OC)C(=O)OC
1

Give the measured INH FD (MIC-MICc fold decrease) for CCCCCCCCCN1CCC[C@H]1C(=O)N[C@H](CC(=O)O)C(=O)O
2

Give the measured INH FD (MIC-MICc fold decrease) for CCCCCCCCCCCN1CCC[C@H]1C(=O)N[C@@H](CC(=O)O)C(=O)O
2

Give the measured INH FD (MIC-MICc fold decrease) for CCCCCCCCCCN1CCC[C@H]1C(=O)N[C@H](CC(=O)OC)C(=O)OC
2

Give the measured INH FD (MIC-MICc fold decrease) for CCCCCCCCCCCCN1CCC[C@H]1C(=O)N[C@H](CC(=O)O)C(=O)O
2

Give the measured INH FD (MIC-MICc fold decrease) for CCCCCCCCCCCN1CCC[C@H]1C(=O)N[C@H](CC(=O)OC)C(=O)OC
1

Give the measured INH FD (MIC-MICc fold decrease) for CCCCCCCCCCCCN1CCC[C@H]1C(=O)N[C@@H](CC(=O)OC)C(=O)OC
2

Give the measured INH FD (MIC-MICc fold decrease) for O=P(O)(O)C(O)(Cn1ccnc1)P(=O)(O)O [ZOL, zoledronate]
16

Give the measured INH FD (MIC-MICc fold decrease) for CCCCCCCCCCCN1CCC[C@H]1C(=O)N[C@H](CC(=O)O)C(=O)O
2

###

- Tested on: Candida glabrata
- assay_summary: checkerboard drug interaction (FICI, MICc)
- Type: cell-based
- test_parameters: C. glabrata; ITR:INH combination; fold decrease of ITR MIC
parameter_measured: ITR FD (MIC-MICc fold decrease)
// no unit string in output, number only

CCCCCCCCCN1CCC[C@H]1C(=O)N[C@@H](CC(=O)O)C(=O)O [PLA9] | 4
CCCCCCCCCCCN1CCC[C@H]1C(=O)N[C@@H](CC(=O)OC)C(=O)OC [dmPLA11] | 2
CCCCCCCCCCCCN1CCC[C@H]1C(=O)N[C@@H](CC(=O)OC)C(=O)OC [dmPLA12] | 4

Give the measured ITR FD (MIC-MICc fold decrease) for CCCCCCCCCCCN1CCC[C@H]1C(=O)N[C@H](CC(=O)OC)C(=O)OC [dmPDA11]
2

Give the measured ITR FD (MIC-MICc fold decrease) for CCCCCCCCCN1CCC[C@H]1C(=O)N[C@H](CC(=O)O)C(=O)O [PDA9]
4

###

# key: entry, value: MIC / MEC
- System: Candida parapsilosis
- assay_summary: MIC broth microdilution (CLSI)
- Type: cell-based
- test_parameters: Candida parapsilosis ATCC 22018
Numeric only. Scale: µg/mL

CC[C@H](C)C[C@H](C)CCCCCCCCC(=O)N[C@H]1C[C@@H](O)[C@@H](NCCN)NC(=O)[C@@H]2[C@@H](O)CCN2C(=O)[C@H]([C@H](O)CCN)NC(=O)[C@H]([C@H](O)[C@@H](O)c2ccc(O)cc2)NC(=O)[C@@H]2C[C@@H](O)CN2C(=O)[C@H]([C@@H](C)O)NC1=O | 1
O=P(O)(O)C(O)(Cn1ccnc1)P(=O)(O)O [ZOL, zoledronate] | 128

Consider the record given below.
Give the measured MIC / MEC for C[C@@H]1[C@H](O)[C@@H](C)/C=C/C=C/C=C/C=C/C=C/C=C/C=C/[C@H](O[C@@H]2O[C@H](C)[C@@H](O)[C@H](N)[C@@H]2O)C[C@@H]2O[C@](O)(C[C@@H](O)C[C@@H](O)[C@H](O)CC[C@@H](O)C[C@@H](O)CC(=O)O[C@H]1C)C[C@H](O)[C@H]2C(=O)O
0.5

###

# key: entry, value: FICI (KET:INH)
- Tested on: Aspergillus flavus
- assay_summary: checkerboard drug interaction (FICI, MICc)
- Type: cell-based
- test_parameters: A. flavus; Fractional Inhibitory Concentration Index, ketoconazole + inhibitor
// no unit string in output, number only

Give the measured FICI (KET:INH) for CCCCCCCCCCCCN1CCC[C@H]1C(=O)N[C@@H](CC(=O)OC)C(=O)OC
0.52

Give the measured FICI (KET:INH) for CCCCCCCCCCCN1CCC[C@H]1C(=O)N[C@H](CC(=O)O)C(=O)O
0.75

Give the measured FICI (KET:INH) for CCCCCCCCCN1CCC[C@H]1C(=O)N[C@H](CC(=O)O)C(=O)O
1

Give the measured FICI (KET:INH) for CCCCCCCCCCN1CCC[C@H]1C(=O)N[C@@H](CC(=O)OC)C(=O)OC
1.5

Give the measured FICI (KET:INH) for CCCCCCCCCCN1CCC[C@H]1C(=O)N[C@H](CC(=O)OC)C(=O)OC
0.63

Give the measured FICI (KET:INH) for CCCCCCCCCCCCN1CCC[C@H]1C(=O)N[C@H](CC(=O)O)C(=O)O
1

Give the measured FICI (KET:INH) for CCCCCCCCCCCN1CCC[C@H]1C(=O)N[C@@H](CC(=O)OC)C(=O)OC
0.75

Give the measured FICI (KET:INH) for CCCCCCCCCCCN1CCC[C@H]1C(=O)N[C@H](CC(=O)OC)C(=O)OC
0.31

Give the measured FICI (KET:INH) for CCCCCCCCCCCN1CCC[C@H]1C(=O)N[C@@H](CC(=O)O)C(=O)O
2

Give the measured FICI (KET:INH) for CCCCCCCCCN1CCC[C@H]1C(=O)N[C@H](CC(=O)OC)C(=O)OC
1

Give the measured FICI (KET:INH) for CCCCCCCCCCCCN1CCC[C@H]1C(=O)N[C@H](CC(=O)OC)C(=O)OC
0.27

Give the measured FICI (KET:INH) for CCCCCCCCCN1CCC[C@H]1C(=O)N[C@@H](CC(=O)O)C(=O)O
1

Give the measured FICI (KET:INH) for O=P(O)(O)C(O)(Cn1ccnc1)P(=O)(O)O [ZOL, zoledronate]
1.5

Give the measured FICI (KET:INH) for CCCCCCCCCN1CCC[C@H]1C(=O)N[C@@H](CC(=O)OC)C(=O)OC
1

###

# key: entry, value: INH MICc (FLC:INH)
- System: Trichophyton rubrum
- assay_summary: checkerboard drug interaction (FICI, MICc);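 also: simplified diagonal checkerboard screen pairing azole antifungals with FPPS inhibitors, FICI calculated under the Loewe additivity model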
- Type: cell-based
- test_parameters: T. rubrum; MIC of the inhibitor in combination with fluconazole
// no unit string in output, number only

Find INH MICc (FLC:INH) for CCCCCCCCCCN1CCC[C@H]1C(=O)N[C@@H](CC(=O)OC)C(=O)OC on Trichophyton rubrum and write it down.
64

Find INH MICc (FLC:INH) for CCCCCCCCCCn1cc[n+](CC(O)(P(=O)(O)O)P(=O)(O)O)c1 [10-ZOL, Decyl-zoledronate] on Trichophyton rubrum and write it down.
0.5

Find INH MICc (FLC:INH) for CCCCCCCCCN1CCC[C@H]1C(=O)N[C@H](CC(=O)O)C(=O)O on Trichophyton rubrum and write it down.
256

Find INH MICc (FLC:INH) for CCCCCCCCCCCN1CCC[C@H]1C(=O)N[C@H](CC(=O)O)C(=O)O on Trichophyton rubrum and write it down.
256

Find INH MICc (FLC:INH) for CCCCCCCCCN1CCC[C@H]1C(=O)N[C@@H](CC(=O)O)C(=O)O on Trichophyton rubrum and write it down.
256

Find INH MICc (FLC:INH) for CCCCCCCCCCCCN1CCC[C@H]1C(=O)N[C@H](CC(=O)OC)C(=O)OC on Trichophyton rubrum and write it down.
32
